Each entry below lists one item and its recorded pKi value.
biological target: Adenosine receptor A2a (Homo sapiens); test: Displacement of [3H]ZM241385 from human recombinant adenosine A2A receptor expressed in CHO cells by liquid scintillation counting; assay type: cell-based
Sequence (P29274 whole entry): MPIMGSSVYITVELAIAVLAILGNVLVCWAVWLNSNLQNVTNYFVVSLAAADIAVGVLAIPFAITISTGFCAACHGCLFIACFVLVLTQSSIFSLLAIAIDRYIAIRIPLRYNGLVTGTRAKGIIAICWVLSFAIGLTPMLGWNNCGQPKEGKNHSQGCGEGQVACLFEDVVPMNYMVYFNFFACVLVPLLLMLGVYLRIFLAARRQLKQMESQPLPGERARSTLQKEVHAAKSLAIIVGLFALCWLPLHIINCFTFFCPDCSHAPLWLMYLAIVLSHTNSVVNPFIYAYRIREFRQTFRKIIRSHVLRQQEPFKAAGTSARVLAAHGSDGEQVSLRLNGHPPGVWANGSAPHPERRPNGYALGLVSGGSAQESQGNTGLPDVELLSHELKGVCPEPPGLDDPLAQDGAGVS
Note: pKi values are expressed as the negative base-10 logarithm of concentration in M.

mol | pKi
Nc1ccc(Nc2nc(-c3ccccc3)nc3c2nnn3Cc2ccccc2)cc1 | 5.89
O=[N+]([O-])c1ccc(Nc2nc(-c3ccccc3)nc3c2ncn3Cc2ccccc2)cc1 | 5.72

# return recorded pKi for input Nc1ccc(Nc2nc(-c3ccccc3)nc3c2ncn3Cc2ccccc2)cc1
5.24

====

Recorded measurements of Activity, one per entry
target: Adenosine receptor A2a (Homo sapiens); assay: Displacement of [3H]CGS21680 from human recombinant adenosine A2A receptor expressed in CHO cells at 10 uM by liquid scintillation counting relative to control; format: cell-based
Give the value in % but do not write % after it.

mol | Activity / %
COc1ccc(NC(=O)Nc2ccc(Nc3nc(-c4ccccc4)nc4c3ncn4Cc3ccccc3)cc2)cc1 | 120

Please give measured Activity of the following entry: O=[N+]([O-])c1ccc(Nc2nc(-c3ccccc3)nc3c2nnn3Cc2ccccc2)cc1
96

Indicate the recorded Activity value for this molecule: Nc1ccc(Nc2nc(-c3ccccc3)nc3c2nnn3Cc2ccccc2)cc1
0

Query Activity for O=C(Nc1ccc(Nc2nc(-c3ccccc3)nc3c2nnn3Cc2ccccc2)cc1)Nc1ccc(C(F)(F)F)cc1
180

Write down Activity measured for item O=C(Nc1ccccc1)Nc1ccc(Nc2nc(-c3ccccc3)nc3c2ncn3Cc2ccccc2)cc1
74

For the molecule Nc1ccc(Nc2nc(-c3ccccc3)nc3c2ncn3Cc2ccccc2)cc1 , report Activity.
44

Please report Activity for the following molecule: O=C(Nc1ccc(F)cc1)Nc1ccc(Nc2nc(-c3ccccc3)nc3c2ncn3Cc2ccccc2)cc1
83

Please indicate Activity recorded for O=[N+]([O-])c1ccc(Nc2nc(-c3ccccc3)nc3c2ncn3Cc2ccccc2)cc1
114

Taken from ChEMBL document CHEMBL1141671.
